molecular target: Recombinant human factor B (Homo sapiens (Human))
pIC50: −log10 of the molar value.
Class label 1: pIC50 at least 6. Class label 0: pIC50 below 6.

compound="CNC(C)(c1nc2cc(C#N)cnc2[nH]1)c1c(OC)cc(C)c2[nH]ccc12 (stereo not drawn) [11-B b) (+)]" class="label 0"
compound="COc1cc(C)c2[nH]ccc2c1C(N)(c1nc2cc(C#N)cnc2[nH]1)C(F)(F)F (stereo not drawn) [5-B b) (+)]" class="label 1"
compound="CCc1cc(C)c2[nH]ccc2c1C(O)(c1nc2cc(C#N)cnc2[nH]1)C(F)(F)F (stereo not drawn) [14-I b) (+)]" class="label 0"
compound="COc1cc(C)c2[nH]ccc2c1C(C)(O)c1nc2cc(C#N)cnc2[nH]1 (stereo not drawn) [7-D b) (+)]" class="label 1"

###

target: Recombinant human factor B (Homo sapiens (Human)); test: biochemical
pIC50: −log10 of the molar value.
property: pIC50

molecule="Cc1cc(C2CC2)c(C(O)c2nc3cc(C#N)cnc3[nH]2)c2cc[nH]c12 (racemic)" property=pIC50 reported=6.34
molecule="Cc1cc(C2CC2)c(C(C)(O)c2nc3cc(C#N)cnc3[nH]2)c2cc[nH]c12 (racemic)" property=pIC50 reported=7.22
molecule="CCc1cc(C)c2[nH]ccc2c1C(C)(NC)c1nc2cc(C#N)cnc2[nH]1 (racemic)" property=pIC50 reported=6.27
molecule=COc1cc(C)c2[nH]ccc2c1C(C)(C)c1nc2cc(C#N)cnc2[nH]1 property=pIC50 reported=7.40
molecule="Cc1cc(C2CC2)c(C(N)(c2nc3cc(C#N)cnc3[nH]2)C(F)(F)F)c2cc[nH]c12 (racemic)" property=pIC50 reported=7.05

###

Measured IC50 accompanies every entry in the list below.
target: Recombinant human factor B (Homo sapiens (Human), UniProt P00751)
Sequence (P00751 26-764): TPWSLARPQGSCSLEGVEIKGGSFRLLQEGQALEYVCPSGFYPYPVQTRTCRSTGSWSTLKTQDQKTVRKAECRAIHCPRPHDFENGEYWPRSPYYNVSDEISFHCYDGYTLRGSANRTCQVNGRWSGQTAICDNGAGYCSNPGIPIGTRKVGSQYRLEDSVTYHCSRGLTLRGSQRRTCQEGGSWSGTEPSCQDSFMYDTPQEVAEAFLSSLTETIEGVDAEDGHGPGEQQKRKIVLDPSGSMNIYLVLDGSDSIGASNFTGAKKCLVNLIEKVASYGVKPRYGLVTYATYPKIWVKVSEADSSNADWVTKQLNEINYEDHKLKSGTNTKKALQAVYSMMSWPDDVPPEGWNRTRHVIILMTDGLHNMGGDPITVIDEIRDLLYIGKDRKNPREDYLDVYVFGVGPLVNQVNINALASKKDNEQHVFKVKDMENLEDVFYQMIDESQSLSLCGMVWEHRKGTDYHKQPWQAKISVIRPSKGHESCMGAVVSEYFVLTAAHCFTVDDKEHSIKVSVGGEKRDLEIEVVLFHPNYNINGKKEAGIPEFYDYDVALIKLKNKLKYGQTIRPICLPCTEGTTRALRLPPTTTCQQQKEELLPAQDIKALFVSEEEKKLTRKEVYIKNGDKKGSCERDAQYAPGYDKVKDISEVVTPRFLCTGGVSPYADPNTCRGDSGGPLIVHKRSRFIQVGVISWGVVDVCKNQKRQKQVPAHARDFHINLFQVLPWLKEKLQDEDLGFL
property: IC50 (nM)

compound="COc1cc(C)c2[nH]ccc2c1C(C)(OC)c1nc2cc(C#N)cnc2[nH]1 (stereo not drawn) [8-B b) (+)]" target_entity="Recombinant human factor B (Homo sapiens (Human), UniProt P00751)" property=IC50 reported=720
compound="CNC(c1nc2cc(C#N)cnc2[nH]1)(c1c(OC)cc(C)c2[nH]ccc12)C(F)(F)F (stereo not drawn) [9-D b) (+)]" target_entity="Recombinant human factor B (Homo sapiens (Human), UniProt P00751)" property=IC50 reported=1520
compound="COc1cc(C)c2[nH]ccc2c1C(O)c1nc2ncc(C#N)cc2[nH]1 (stereo not drawn) [6-C b) (+)]" target_entity="Recombinant human factor B (Homo sapiens (Human), UniProt P00751)" property=IC50 reported=700
compound="COc1cc(C)c2[nH]ccc2c1C(C)(N)c1nc2cc(C#N)cnc2[nH]1 (stereo not drawn) [10-B b) (+)]" target_entity="Recombinant human factor B (Homo sapiens (Human), UniProt P00751)" property=IC50 reported=1380
